- MEASUREMENT PROTOCOL: qHTS assay to identify small molecule agonists of the retinoic acid receptor (RAR) signaling pathway (AID 1159553)
- MEASUREMENT SETUP: C3RL4 RARE luciferase reporter, agonist, 6 h; series mostly up to 73.3 µM
Records with an inconclusive call do not appear. Calls of active or inactive are those of the source. Calls follow the shape of the dose curve; as a rule, active = well fitted activation curve with a large enough effect in the repeat runs; inconclusive = weak or mixed curves, or effect the other way; inactive = no such curve, though single readings can be large or run the other way.
The reply should name one outcome from active, inactive

Problem: Please share the test call associated with `COC1=CC(=O)O[C@@H](CCc2ccccc2)C1` .
Solution: inactive

Problem: Then this compound: `S=C=NCc1ccccc1`
Solution: active

Problem: Then this compound: `O=C(Nc1ccccc1)Nc1cnns1`
Solution: inactive

Problem: Then this compound: CN1C(=O)C(O)N=C(c2ccccc2)c2cc(Cl)ccc21 (stereo unspecified)
Solution: inactive

Problem: Then this compound: `O=[Se]=O`
Solution: inactive

Problem: Then this compound: `CCN(C)N=O`
Solution: inactive

Problem: Then this compound: `BrCCCCBr`
Solution: inactive

Problem: Then this compound: C=CC(=O)OCC(C)O (stereo unspecified)
Solution: inactive

Problem: Then this compound: `CCCCOC(=O)c1ccccc1C(=O)OCc1ccccc1`
Solution: inactive

Problem: Then this compound: `COC(N)=O`
Solution: inactive

Problem: Then this compound: `CCCN(CC1CC1)c1c([N+](=O)[O-])cc(C(F)(F)F)cc1[N+](=O)[O-]`
Solution: inactive
